The measurements presented in this section are drawn from patent US20230322717A1.

Method Description: Dynamic moisture adsorption and desorption analysis (DVS)
Format: physicochemical
Protocol Conditions: 0-80%RH
Endpoint: water absorption

Prompt: Recorded water absorption for O=C(Nc1ccc(OC(F)(F)Cl)cc1)c1cnc(N2CC[C@@H](F)C2)c(-c2cnccn2)c1 [crystal form VI of compound A] , please?
Completion: 1.1852%

###

Method Description: Cooling crystallization: solubility of the crystal form I of compound A in heated solvents
Format: physicochemical
Protocol Conditions: organic solvent or mixture, thermodynamic from solid; ACN; became clear at 50° C.
Description: About 30 mg of the crystal form I of compound A was added to different solvents and heated until dissolved. The resulting solution was then slowly cooled to room temperature. PLM and XRPD tests were performed on the resulting solid crystal forms.
Endpoint: Solubility (mg/mL)
Report the value in mg/mL with no unit label.

Prompt: Recorded Solubility for O=C(Nc1ccc(OC(F)(F)Cl)cc1)c1cnc(N2CC[C@@H](F)C2)c(-c2cnccn2)c1 [crystal form I of compound A] , please?
Completion: 298

###

Method Description: Cooling crystallization: solubility of the crystal form I of compound A in heated solvents
Type: physicochemical
Protocol Conditions: organic solvent or mixture, thermodynamic from solid; Isobutanol; became clear at 70° C.
Endpoint: Solubility (mg/mL)
Report the value in mg/mL with no unit label.

Prompt: Recorded Solubility for O=C(Nc1ccc(OC(F)(F)Cl)cc1)c1cnc(N2CC[C@@H](F)C2)c(-c2cnccn2)c1 [crystal form I of compound A] , please?
Completion: 10.1

###

Method Description: Cooling crystallization: solubility of the crystal form I of compound A in heated solvents
Format: physicochemical
Protocol Conditions: organic solvent or mixture, thermodynamic from solid; MeOH; became clear at 50° C.
Endpoint: Solubility (mg/mL)
Report the value in mg/mL with no unit label.

Prompt: Recorded Solubility for O=C(Nc1ccc(OC(F)(F)Cl)cc1)c1cnc(N2CC[C@@H](F)C2)c(-c2cnccn2)c1 [crystal form I of compound A] , please?
Completion: 34.1

###

Method Description: Dynamic moisture adsorption and desorption analysis (DVS)
Type: physicochemical
Protocol Conditions: 0-90%RH
Endpoint: water absorption

Prompt: Recorded water absorption for O=C(Nc1ccc(OC(F)(F)Cl)cc1)c1cnc(N2CC[C@@H](F)C2)c(-c2cnccn2)c1 [crystal form VI of compound A] , please?
Completion: 1.7452%
